Parameter: ED50. Scope: all listed entries.
test system: pressure stress by artery clip on tail; test: Modified Haffner's Analgesia; assay type: in vivo, mice; details: Mus musculus, sc, read-out: ANALGESIC ACTIVITY (ED50), Modified Haffner's Analgesia, mice, sc, peak time of drug activity
Structures can show the parent of a compound that is named as a salt.

MOLECULE: CN1CC[C@@]2(C)c3cc(O)ccc3N(C)[C@@H]12 [eseroline salicylate, reference compound]
READING UNIT: mg/kg
ED50: 0.18
--
MOLECULE: CC(=O)Oc1cc([N+](=O)[O-])c2c(c1)[C@]1(C)CCN(C)[C@@H]1N2C [acetate fumarate]
READING UNIT: mg/kg
ED50: 3.6
--
MOLECULE: CN1CC[C@@]2(C)c3cc(OC(=O)C(C)(C)C)cc(Br)c3N(C)[C@@H]12.Cl (relative stereo)
READING UNIT: mg/kg
ED50: 0.6
--
MOLECULE: CCN1CCC2(C)c3cc(O)cc(Br)c3N(C)C12 (stereo not drawn)
READING UNIT: mg/kg
ED50: 1.94
--
MOLECULE: C=CCN1CCC2(C)c3cc(O)ccc3N(C)C12 (stereo not drawn)
READING UNIT: mg/kg
ED50: 2.56
--
MOLECULE: Cc1cc(O)cc2c1N(C)[C@H]1N(C)CC[C@@]21C (relative stereo)
READING UNIT: mg/kg
ED50: 0.31

###

molecular target: acetylcholinesterase (Brain AChE) (Rattus norvegicus)
Sequence (P37136 32-614): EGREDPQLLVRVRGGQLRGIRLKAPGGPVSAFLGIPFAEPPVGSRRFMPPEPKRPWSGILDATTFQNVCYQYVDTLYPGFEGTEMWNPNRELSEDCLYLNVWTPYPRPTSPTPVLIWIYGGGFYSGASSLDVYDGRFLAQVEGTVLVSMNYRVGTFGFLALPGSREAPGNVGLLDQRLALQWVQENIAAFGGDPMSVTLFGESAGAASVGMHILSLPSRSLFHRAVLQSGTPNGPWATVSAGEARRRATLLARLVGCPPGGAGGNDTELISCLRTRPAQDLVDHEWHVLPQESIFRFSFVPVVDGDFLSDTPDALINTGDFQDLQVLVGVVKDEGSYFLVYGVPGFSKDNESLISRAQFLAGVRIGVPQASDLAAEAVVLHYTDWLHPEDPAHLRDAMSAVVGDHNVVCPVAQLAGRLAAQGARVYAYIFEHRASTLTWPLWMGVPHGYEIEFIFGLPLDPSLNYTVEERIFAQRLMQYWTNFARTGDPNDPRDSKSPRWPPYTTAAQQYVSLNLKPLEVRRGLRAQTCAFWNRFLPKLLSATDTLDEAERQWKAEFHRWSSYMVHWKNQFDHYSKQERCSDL
So basically, if IC50 comes in under 1000 nM it's true (1), and if it's 1000 nM or more it's false (0).

COMPOUND: CN1CC[C@@]2(C)c3cc(OC(=O)Nc4cccc(Cl)c4)ccc3N(C)[C@@H]12
LABEL CLASS: true (1)
--
COMPOUND: C[C@@H](NC(=O)Oc1ccc2c(c1)[C@]1(C)CCN(C)[C@@H]1N2C)c1ccccc1 (relative stereo)
LABEL CLASS: false (0)
--
COMPOUND: CNC(=O)Oc1cc(C)c2c(c1)[C@]1(C)CCN(C)[C@@H]1N2C
LABEL CLASS: true (1)
--
COMPOUND: CN1CC[C@@]2(C)c3cc(OC(=O)NC4CCCCC4)ccc3N(C)[C@@H]12
LABEL CLASS: true (1)
--
COMPOUND: CN1CC[C@@]2(C)c3cc(OC(=O)NC45CC6CC(CC(C6)C4)C5)ccc3N(C)[C@@H]12
LABEL CLASS: false (0)
--
COMPOUND: C[C@H](NC(=O)Oc1ccc2c(c1)[C@]1(C)CCN(C)[C@@H]1N2C)c1ccccc1 (relative stereo)
LABEL CLASS: false (0)
--
COMPOUND: CN1CC[C@@]2(C)c3cc(OC(=O)NC4CCCCCCCCCCC4)ccc3N(C)[C@@H]12
LABEL CLASS: true (1)
--
COMPOUND: CN1CC[C@@]2(C)c3cc(OC(=O)N4CC5CCC(CC5)C4)ccc3N(C)[C@@H]12
LABEL CLASS: true (1)

###

test: Acute toxicity (LD50); type: in vivo; conditions: in vivo, ip, death within 24 hours

COMPOUND: C[C@H](NC(=O)Oc1ccc2c(c1)[C@]1(C)CCN(C)[C@@H]1N2C)c1ccccc1 (relative stereo)
LD50 at 24 h: > 40 mg/kg
//
COMPOUND: CN1CC[C@@]2(C)c3cc(OC(=O)Nc4ccncc4)ccc3N(C)[C@@H]12
LD50 at 24 h: ~40 mg/kg
//
COMPOUND: CN1CC[C@@]2(C)c3cc(OC(=O)NC4CCCCC4)ccc3N(C)[C@@H]12
LD50 at 24 h: > 5 mg/kg
//
COMPOUND: CN1CC[C@@]2(C)c3cc(OC(=O)Nc4cccc(Cl)c4)ccc3N(C)[C@@H]12
LD50 at 24 h: > 80 mg/kg
//
COMPOUND: C[C@@H](NC(=O)Oc1ccc2c(c1)[C@]1(C)CCN(C)[C@@H]1N2C)c1ccccc1 (relative stereo)
LD50 at 24 h: ~40 mg/kg
//
COMPOUND: CNC(=O)Oc1ccc2c(c1)[C@]1(C)CCN(C)[C@@H]1N2C [Physostigmine, reference compound]
LD50 at 24 h: ~3 mg/kg
